- Target system: Bmx (h) (Homo sapiens, UniProt P51813)
- Sequence (P51813 1-675): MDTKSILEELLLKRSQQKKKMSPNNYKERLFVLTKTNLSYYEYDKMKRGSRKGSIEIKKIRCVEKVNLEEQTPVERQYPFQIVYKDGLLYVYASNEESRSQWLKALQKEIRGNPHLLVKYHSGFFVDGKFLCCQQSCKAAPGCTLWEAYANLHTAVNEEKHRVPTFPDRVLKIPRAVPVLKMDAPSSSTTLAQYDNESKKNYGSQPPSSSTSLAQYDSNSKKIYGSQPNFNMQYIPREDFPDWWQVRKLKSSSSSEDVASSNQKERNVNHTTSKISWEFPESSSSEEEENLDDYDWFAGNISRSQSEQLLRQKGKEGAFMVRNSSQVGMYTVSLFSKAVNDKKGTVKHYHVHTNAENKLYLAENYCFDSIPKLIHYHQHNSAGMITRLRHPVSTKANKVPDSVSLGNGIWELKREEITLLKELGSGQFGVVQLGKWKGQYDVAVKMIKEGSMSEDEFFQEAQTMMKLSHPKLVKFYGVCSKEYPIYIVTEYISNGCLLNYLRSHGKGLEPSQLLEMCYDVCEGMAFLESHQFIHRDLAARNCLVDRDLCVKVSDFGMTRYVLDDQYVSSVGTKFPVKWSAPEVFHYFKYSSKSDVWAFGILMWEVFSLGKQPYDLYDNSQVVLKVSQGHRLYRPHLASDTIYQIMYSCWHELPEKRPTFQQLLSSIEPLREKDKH
- Procedure text: Kinase profiling, glass-fiber filter technology: Bmx
- Assay type: biochemical
- Measurement setup: test concentration of 10^−6 M; read-out: Bmx inhibition score
Measurement label: inhibition at 1 µM

# inhibition at 1 µM lookup, item CN1CCCCCOc2cc3c(ncnc3cc2OCCCNC(=O)OC(C)(C)C)Nc2cc(Br)ccc2C1
10 to 30%

Follow-up item: CC(=O)OCCN(C)CCCOc1cc2ncnc3c2cc1OCCCNC(=O)[C@H](C)N(C)Cc1cc(F)c(Cl)cc1N3
30 to 60%

Subsequent entry: CN1CCCCCOc2cc3c(ncnc3cc2OC[C@@H](O)CN2CCS(=O)(=O)CC2)Nc2cc(Br)ccc2C1
30 to 60%

Next: CN1CCCCCOc2cc3c(ncnc3cc2OCCCNCCS(C)(=O)=O)Nc2cc(Br)ccc2C1
30 to 60%

Cool, now C#Cc1ccc2c(c1)Nc1ncnc3cc(OCCCNCCS(C)(=O)=O)c(cc13)OCCCCCN(C)C2
60 to 80%

Consider next the molecule CC(=O)N(CCO)CCCOc1cc2ncnc3c2cc1OCCCNC(=O)[C@H](C)N(C)Cc1cc(F)c(Cl)cc1N3 in the same way.
30 to 60%

Quick one: CN1CCCCCOc2cc3c(ncnc3cc2OC[C@H](O)CNCCOCCO)Nc2cc(Cl)c(F)cc2C1
60 to 80%

Now try C[C@H]1C(=O)NCCCOc2cc3c(ncnc3cc2OCCCN2CCN(C(=O)OC(C)(C)C)CC2)Nc2cc(Cl)c(F)cc2CN1C .
30 to 60%

Input CN1CCCCCOc2cc3c(ncnc3cc2OCCCNCCS(C)(=O)=O)Nc2cc(Cl)c(F)cc2C1
30 to 60%

# iterate: CC(=O)NCCNCCCOc1cc2ncnc3c2cc1OCCCNC(=O)[C@H](C)N(C)Cc1cc(F)c(Cl)cc1N3
30 to 60%

And CN1CCCCCOc2cc3c(ncnc3cc2OCCCN2CCS(=O)(=O)CC2)Nc2cc(Cl)c(F)cc2C1 ?
60 to 80%

CC(=O)NCCNCCCOc1cc2ncnc3c2cc1OCCCCCN(C)Cc1ccc(Br)cc1N3 , same question.
60 to 80%

// same read-out, input: CC(=O)NCCN1CCN(CCCOc2cc3ncnc4c3cc2OCCCNC(=O)[C@H](C)N(C)Cc2cc(F)c(Cl)cc2N4)CC1
30 to 60%
